- testDetails: compound fluorescence in toxin protease inhibitor counterscreen, primary screen, artefact control for toxin protease inhibitor project, biochemical, multiplex microsphere, HTS (AID 624483)
- studyConditions: compound autofluorescence counterscreen, microsphere flow cytometry; stronger effect = higher value
In all, about 360,000 compounds went through this assay and about 11,000 (3.1%) were called active. Another 2% or so got no clear call; they are omitted. The sample as a whole holds a higher share of actives than the screen did.
Listed molecules paired with reported fluorescence intensity
API doc: respond with a numeric literal and nothing else, no unit.

Observe how each entry below is paired with its result.
- testSmiles: "O=C(N1CCOCC1)N(Cc1ccccc1)c1ccccn1"
  fluorescence intensity: 3710
- testSmiles: "Nc1nonc1-c1nc2ccccc2n1CCC(=O)O"
  fluorescence intensity: 23600
- testSmiles: "COC(=O)CCSc1nccn1Cc1ccccc1"
  fluorescence intensity: 20500
- testSmiles: "CCCN(CCC)C(=S)Nc1cc(C(=O)OC)ccc1C(=O)OC"
  fluorescence intensity: 2240
- testSmiles: "CC(C)(C)C(=O)CSc1nc2ccccc2o1"
  fluorescence intensity: 4330
- testSmiles: "Cn1c(=O)c(=O)n(C)c2cc(S(=O)(=O)NCCc3ccccc3)ccc21"
  fluorescence intensity: 21300
- testSmiles: "CCS(=O)(=O)Nc1cc(C(=O)OC)ccc1C(=O)OC"
  fluorescence intensity: 20300
- testSmiles: "COc1cccc(-c2cc(NC(C)=O)c3ncc(-c4cccc(C(C)=O)c4)n3c2)c1"
  fluorescence intensity: 3560
- testSmiles: "O=C(NCCS(=O)(=O)N1CCN(c2ccc(F)cc2)CC1)c1ccc2c(c1)OCO2"
  fluorescence intensity: 4110

Now for another entry.
query: Given the entry `COc1cc(CCN=Cc2ccccc2O)c([N+](=O)[O-])cc1OC` , report its measured fluorescence intensity.
result: 6170

Reference source: PubChem BioAssay AID624483
